Ref: paper PMC5540273

- Tested on: MEK1
- Construct: gene MAP2K1
- Test settings: concentration: 1 μM, replicates: in singlicate; n = 1;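 further: KINOMEscan kinase panel screen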
Parameter measured: %Inh (%)
Field format: number, assumed %, no unit text.

q: Using the record for FC(F)(F)c1ccccc1-c1cc(-c2c[nH]nc2-c2ccccn2)ccn1 , report its %Inh.
a: 0

q: Give the measured %Inh of COc1ccc(Nc2nccc(N3CCC(NC(=O)C(C)c4ccc(Cl)cc4)C3)n2)cc1 (stereo not drawn) .
a: 0

q: Please look up its %Inh: Cc1nccc(-c2c(-c3ccc(F)cc3)ncn2CCCN2CCOCC2)n1.Cl
a: 1

q: # input molecule: Nc1nccc(-c2c(-c3ccc(F)cc3)ncn2C2CCN(Cc3ccccc3)CC2)n1 ; wanted: its %Inh
a: 7

q: Looking for the measured %Inh of Cn1cncc1-c1cc2c(Nc3ccc(OCc4ccccc4)cc3)ncnc2cn1 , can you help?
a: 11

q: Could you share which %Inh value was measured for Cn1cnc2c(N)ncnc21 ?
a: 0

q: Any idea what %Inh was measured for Cc1ccc(NC(=O)Nc2ccccc2F)cc1-c1ccc(C(=O)Nc2ccncc2)cc1 ?
a: 0

q: Reported %Inh, molecule COC(=O)c1cccc(NC(=O)NC2CCN(c3ccnc(Nc4ccc(F)cc4)n3)C2)c1 (stereo not drawn) : ____
a: 0

q: Would you mind telling me what %Inh value was observed for CCn1c(-c2c(N)noc2C)nc2cnccc21 ?
a: 0

###

- Test system: NLK
- Test settings: concentration: 1 μM, replicates: in singlicate; n = 1
Parameter measured: %Inh
Form entry: enter the amount, then its unit.

q: Quick one: %Inh for O=C(Nc1n[nH]c2cc(-c3ccsc3)ccc12)C1CC1 ?
a: 46%

q: Query (molecule): COC(=O)c1cccc(NC(=O)NC2CCN(c3ccnc(Nc4ccc(OC)cc4)n3)C2)c1 (centres unmarked) ; field requested: %Inh
a: 35%

q: # lookup: %Inh of O=C(Nc1n[nH]c2nc(-c3ccco3)c(Br)cc12)C1CCN(Cc2ccccc2)C1.O=C(O)[C@H](O)[C@@H](O)C(=O)O (centres unmarked)
a: 0%

q: Look at this molecule and give its reported %Inh. COc1cccc(C2=C(Nc3cc(Cl)c(O)c(Cl)c3)C(=O)NC2=O)c1
a: 0%

q: Query: %Inh; subject: FC(F)(F)c1ccccc1-c1cc(-c2c[nH]nc2-c2ccccn2)ccn1
a: 18%

q: Entry under review: Nc1ncnc2occ(-c3ccc4c(c3)CCN4C(=O)Cc3cc(F)ccc3F)c12 . Reported %Inh?
a: 0%

q: // lookup %Inh for Nc1cccc(-c2ccc3c(N)n[nH]c3c2)n1
a: 0%

q: // lookup %Inh for COc1ccc(Nc2nccc(N3CCC(NC(=O)C(C)c4ccc(Cl)cc4)CC3)n2)cc1 (centres unmarked)
a: 35%

###

- System: ROS1
- Test settings: concentration: 1 μM, replicates: in singlicate; n = 1
Would you mind telling me the reported %Inh of each entry?
Answer with a number only, understood to be in %.

q: Param item = Cc1ccc(NC(=O)c2ccc(Cl)cc2)cc1-c1ccc(C(=O)Nc2ccncc2)cc1 ; retrieve measured %Inh.
a: 8

q: Suppose we examine the compound COc1ccc2cc(-c3nc(-c4ccccc4C(C)C)[nH]c3-c3ccncc3)ccc2c1 ; what %Inh value has been reported?
a: 0

q: State the recorded %Inh for this entry: CS(=O)(=O)CCNCc1nc(-c2ccc3ncnc(Nc4ccc(OCc5ccccc5)c(Cl)c4)c3c2)cs1.Cl
a: 0

q: # query: %Inh of entry Fc1ccc(-c2nc3n(c2-c2ccncc2)CCS3)cc1
a: 3

q: Need %Inh, item O=C(Nc1n[nH]c2nc(-c3cccs3)c(Br)cc12)C1CC1
a: 6
